Field: pEC50. Provide a value for each of the binders that follow.
- Measurement Target: T1, Biotin sY46 PSGL-1(42-62) peptide (human, sulfotyrosine at Y46; C-terminal Lys-biotin)
- T1 peptide: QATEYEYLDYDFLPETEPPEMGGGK
- Assay Info: ELISA, plate-bound mAb captures biotin peptide
Numbers only, as −log10 of the molar value.

binder="SELK1 (antibody, V domains shown, Control anti-PSGL-1 mAb; only variable domains given) VH: QVQLQQSGPGLVKPSQTLSLTCAISGDSVSSNIAAWHWIRLSPSRGLEWLGRTYYRRSKWNYDYALSVKSRININPDTSKNLFSLQLNSVTPEDTAVYYCTRGGGRAHSAWGQGTLVTVSS VL: EIVLTQSPGTLSVSPGERATLSCRASQSVSRSHLAWYQQKPGQAPRLLIFGASSRATGIPDRFSGSGSGTDFTLTISRLEPEDFAVYYCQQYGRPGVTFGQGTKVEIK" recorded_endpoint=pEC50 reported=6.78

We now examine a further binder.
Req: Fill blank: measured pEC50 of the binder 03D07 (antibody, IgG4, V domains shown) VH: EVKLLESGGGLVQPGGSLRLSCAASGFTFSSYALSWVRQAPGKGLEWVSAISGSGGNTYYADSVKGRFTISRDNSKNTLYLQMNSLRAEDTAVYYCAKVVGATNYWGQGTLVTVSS VL: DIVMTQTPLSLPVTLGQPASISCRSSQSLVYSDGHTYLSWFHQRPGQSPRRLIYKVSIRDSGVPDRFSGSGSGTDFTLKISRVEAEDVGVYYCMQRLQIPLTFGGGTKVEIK is ____.
Resp: 6.01
